B1: library; numbered along this chain (parent)
chain: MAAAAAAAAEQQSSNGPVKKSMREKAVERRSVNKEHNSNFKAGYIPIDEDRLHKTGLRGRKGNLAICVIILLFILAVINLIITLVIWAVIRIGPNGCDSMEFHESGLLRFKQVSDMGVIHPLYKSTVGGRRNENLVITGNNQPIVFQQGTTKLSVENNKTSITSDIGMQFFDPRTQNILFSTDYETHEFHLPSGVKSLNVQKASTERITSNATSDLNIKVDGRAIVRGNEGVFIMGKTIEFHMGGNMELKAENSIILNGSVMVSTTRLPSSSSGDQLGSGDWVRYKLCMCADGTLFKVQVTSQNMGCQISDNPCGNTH

# Variants of: B1
# test-summary: SGCB cell-surface expression functional score (HA stain, bin4 vs bin1, normalised to synonymous) (log10 ratio); higher = more cell-surface SGCB (functional)
Values of SGCB cell-surface expression functional score (log10) greater than or equal to -0.2 map to 1.0; values below map to 0.0.

{"variant-designation": "N95D", "category-label": 0.0}
{"variant-designation": "L57Y", "category-label": 1.0}
{"variant-designation": "S164R", "category-label": 0.0}
{"variant-designation": "D48G", "category-label": 1.0}
{"variant-designation": "N177M", "category-label": 0.0}

Decide: is the reported value of SGCB cell-surface expression functional score (log10) for G236A equal to or greater than -0.2? 1.0

Also, G62L please. 1.0

Next up: D292C 1.0

Consider next the variant T209A in the same way. 1.0

Entry V89D please 0.0

Input R131I 1.0

One more variant: E10C 1.0

Next up: I309R 1.0

Same again, this time with I78F 0.0
